Entry source: PubChem BioAssay (NCI)

Below are molecules with their GI50 as measured on MDA-MB-435.
value_kind: GI50

1. Cc1cc2c(cc1Cl)S/C(=C/C(=O)O)C(Nc1ccc3ncsc3c1)=NS2(=O)=O | > 33.5 µM
2. Nc1nc([Se])c2ncn(C3OC(CO)C(O)C3O)c2n1 (stereo not drawn) | 15.1 µM
3. CCN(CC)CCN1C(=O)c2c(c3c4ccccc4[nH]c3c3ccc4ccccc4c23)C1=O | 1.77 µM
4. Nc1ccc(C2=CC(c3ccc(Cl)cc3)N3C=CSC3=N2)cc1 (stereo not drawn) | 2.43 µM
5. CCN(CC)CCCNc1cc(OC)cc2nc3cc(Cl)ccc3nc12 | 1.87 µM
6. CC1C(C)N(C(=O)CCl)c2ccccc2N1C(=O)CCl (stereo not drawn) | 0.276 µM
7. COc1cccc(CC(C)=C(c2ccc(OCCN3CCCCC3)cc2)c2ccc(OCCN3CCCCC3)cc2)c1 | 1.67 µM
8. CNC(=O)c1c(NC(=O)c2ccc(C(C)(C)C)cc2)sc2c(CN(C)C)c(O)ccc12 | 1.8 µM

###

Tested on: MDA-MB-231 breast
assay_notes: NCI tumour cell line growth inhibition, 48 h
Short version: TGI at least 30 µM is rule met, less is rule not met.

1. CC(=O)NC(C)(C)C1CCC(C)=C(c2ccccc2)C1 (stereo not drawn) | rule met
2. O=S(=O)(NNc1ccccc1)c1ccccc1 | rule not met
3. Cc1csc2c1-n1cccc1C2=O | rule met
4. Cc1cc(=O)n2nc(CCl)sc2n1 | rule met
5. Cc1cc(S(=O)(=O)Nc2nc3ccccc3nc2-c2ccc(Cl)cc2)c(S)cc1Cl | rule met
6. COc1ccc(N=NC(=O)NC(CC(C)C)C(N)=O)cc1 (stereo not drawn) | rule met
7. COC1=CC(=O)CC(C)C12Oc1c(Cl)c(OC)cc(OC)c1C2=O (stereo not drawn) | rule met
8. NC(CSSCC(N)=NCC12CC3CC(CC(C3)C1)C2)=NCC12CC3CC(CC(C3)C1)C2 | rule not met
9. O=C(NC(=O)c1cc(-c2ccccc2)n[nH]1)c1ccccc1 | rule met
10. Cn1c(CO)ccc1-c1ccc(-c2ccc[se]2)[se]1 | rule met
11. COc1ccc2c(c1)c(-c1nc(-c3c[nH]c4ccncc34)cs1)cn2C | rule not met
12. CC(=O)Oc1c(-c2ccccc2)sc2ccccc12 | rule met
13. Cc1cccc2nc3ccccc3c(Nc3ccc(NS(C)(=O)=O)cc3)c12 | rule not met
14. COc1ccc(-c2nc(-c3ccc(C)cc3)cn3ccnc23)cc1 | rule met
15. COc1cc(/C=C/C(=O)/C=C/c2ccc(-n3ccnc3C)cc2)ccc1O | rule not met
16. COC(=O)c1ccc(C)cc1CC1Cc2ccc(C)cc2C1=O (stereo not drawn) | rule met
17. COC(=O)c1c(C#N)c(N)nc2c1CCC2 | rule met
18. COc1ccc2c(c1)[nH]c(=O)c1c3cccc(F)c3cn21 | rule met
19. Cc1oc2c(c1C)S(=O)(=O)C(C#N)=C(N(C)C)N2 | rule met
20. NC(=O)c1cc([N+](=O)[O-])c(Cl)c([N+](=O)[O-])c1Cl | rule not met
21. COc1ccc(CN2c3ccccc3Sc3ccccc32)c(C(F)(F)F)c1 | rule met
22. COc1cc(OC)c2c3c(OC)cc(OC)c4c(=O)c(O)c(C[C@@H](C)O)c(c5c(C[C@@H](C)O)c(O)c(=O)c1c25)c43 | rule not met
23. Clc1ccc(-c2cn3c(nc4ccccc43)c(/C=C/c3ccco3)n2)cc1 | rule met
24. C[C@@H]1C(=O)C[C@H]2C(C)(C)CCC[C@]2(C)[C@@]1(O)CCc1ccoc1 | rule met
25. Cc1nc(C)c(N2CCNCC2)c(=O)[nH]1 | rule met
26. Cc1cc(S(=O)(=O)Nc2nnc3cnc4ccccc4n23)c(S)cc1Cl | rule met
27. Nc1ccc(C2=CC(c3ccc(Cl)cc3)N3C=CSC3=N2)cc1 (stereo not drawn) | rule met
28. O=C(CCCN1CCC(O)(c2ccc(Cl)cc2)CC1)c1ccc(F)cc1 | rule met
29. C=C1CC(Cn2ccc(=O)[nH]c2=O)(c2ccc(Cl)cc2)OC1=O (stereo not drawn) | rule met
30. COc1ncc(Nc2ncc([C@@H](C)N3CCN(S(C)(=O)=O)CC3)cc2-c2nc(C)nc(N)n2)cc1F | rule not met
31. CCOC(=O)c1nc2ccc(C(F)(F)F)cc2nc1Nc1ccc(Cl)c(Cl)c1 | rule met

###

System: HCT-15 colon
assay_notes: NCI tumour cell line growth inhibition, 48 h
Quick reference: TGI of the listed items.
value_kind: TGI

1. COc1ccc(Cc2coc3ccccc3c2=O)cc1OC | > 100 µM
2. O=c1[nH]cc(Cl)c(=O)[nH]1 | > 100 µM
3. COc1ccc2c(c1)nc(C(=O)c1ccco1)c(C(F)(F)F)[n+]2[O-] | > 100 µM
4. O=C(/C=C(\S/C=C(/c1ccccc1)N1CCn2c(C(=O)c3ccccc3)c(C(=O)c3ccccc3)c(C(=O)c3ccccc3)c21)C(=O)c1ccccc1)c1ccccc1 | > 10 µM

###

Test system: SNB-19 CNS
assay_notes: NCI tumour cell line growth inhibition, 48 h
Entries and their TGI values follow.
value_kind: TGI

1. Cc1ccc(C2=C(C#N)C(N)OC3=C2COc2ccccc23)cc1 (centres undefined) | 41.9 µM
2. O=[N+]([O-])C(/C=N/Nc1ccccc1)/C=N/Nc1ccccc1 | > 100 µM
3. CC(=O)c1c2c(cc3c1CC1(C3)Cc3cc4c(c(C(C)=O)c3C1)CCC4)CCC2 | > 100 µM
4. O=C(/C=C/c1ccccc1F)c1ccc(Cl)c(Cl)c1 | > 100 µM
5. CCOCCCn1c2c(c3c(O)cccc31)C(=O)c1ccccc1-2 | > 100 µM
6. COC(=O)c1ccc(C)cc1CC1Cc2ccc(C)cc2C1=O (centres undefined) | > 100 µM
7. Clc1ccc(-c2cn3c(nc4ccccc43)c(/C=C/c3ccco3)n2)cc1 | > 100 µM
8. NC(CCOCCP(=O)(O)O)C(=O)O (centres undefined) | > 100 µM
9. C=C/C=C/[C@@H](O)CC(=C)C[C@H]1OC2[C@H](C)[C@@H](OC(=O)C[C@H]3C[C@H](OC(C)=O)C[C@@]4(C[C@@](C)(O)C[C@H](CC(=C)[C@@H](C)[C@H](OC(C)=O)[C@H](C)C(=O)C[C@@H]5C[C@H](OC)CC6(C[C@@H](O)C[C@H](/C=C\CCC[C@H]7O[C@](O)(C=C[C@H]7C)[C@H]2O)O6)O5)O4)O3)[C@@H]1O | > 25 µM

###

System: OVCAR-3 ovarian
assay_notes: NCI tumour cell line growth inhibition, 48 h
TGI by entry:
value_kind: TGI

1. CC(=O)Nc1ccc2[nH]c(C(=O)N3CC(CCl)c4c3cc([N+](=O)[O-])c3ccccc43)cc2c1 (stereo not drawn) | > 100 µM
2. CC(C)(C)OC(=O)CN1CCNCCN(CC(=O)OC(C)(C)C)CCNCC1 | > 100 µM
3. C=C/C=C/[C@@H](O)CC(=C)C[C@H]1OC2[C@H](C)[C@@H](OC(=O)C[C@H]3C[C@H](OC(C)=O)C[C@@]4(C[C@@](C)(O)C[C@H](CC(=C)[C@@H](C)[C@H](OC(C)=O)[C@H](C)C(=O)C[C@@H]5C[C@H](OC)CC6(C[C@@H](O)C[C@H](/C=C\CCC[C@H]7O[C@](O)(C=C[C@H]7C)[C@H]2O)O6)O5)O4)O3)[C@@H]1O | < 0.0025 µM
4. CN(C)c1ccc(/C=C(\NC(=O)c2ccccc2)C2=NC(CCC(=O)O)C(=O)O2)cc1 (stereo not drawn) | > 50 µM
5. S=c1[nH]n2c(CCCCCCCCc3nnc4sc(=S)[nH]n34)nnc2s1 | > 100 µM
6. CC1=C(c2ccccc2)C(O)(c2ccccc2)C(C)C1=O (stereo not drawn) | > 100 µM
7. NCCCC[C@@H]1NC(=O)[C@H](CC(=O)O)NC(=O)CNC(=O)[C@H](CCCN=C(N)N)NC(=O)[C@@H](N)CSSC[C@@H](C(=O)O)NC(=O)[C@H](CC(=O)O)NC(=O)[C@@H]2CCCN2C(=O)CNC1=O | > 100 µM
8. O=C(CC1OC(O)C(Cl)=C1Cl)c1cccnc1 (stereo not drawn) | > 100 µM
9. CC1(C)CNc2cc(NC(=O)c3cccnc3NCc3ccncc3)ccc21 | > 77.5 µM
10. c1ccc(C2OC3(CCC[C@H]4C[C@H]43)O[C@H]2c2ccccc2)cc1 (stereo partly drawn) | > 100 µM
11. O=c1[nH]cc(Cl)c(=O)[nH]1 | > 100 µM
12. O=c1oc2ccccc2cc1-c1cn2c(n1)sc1ccccc12 | > 100 µM
13. C[N+](C)(C)CC(=O)N/N=C(/C(=O)Nc1ccc(Br)cc1)C1C(=O)NC(=O)NC1=O | > 100 µM
